Target: Beta-2 adrenergic receptor (Homo sapiens, UniProt P07550)
Sequence (P07550 whole entry): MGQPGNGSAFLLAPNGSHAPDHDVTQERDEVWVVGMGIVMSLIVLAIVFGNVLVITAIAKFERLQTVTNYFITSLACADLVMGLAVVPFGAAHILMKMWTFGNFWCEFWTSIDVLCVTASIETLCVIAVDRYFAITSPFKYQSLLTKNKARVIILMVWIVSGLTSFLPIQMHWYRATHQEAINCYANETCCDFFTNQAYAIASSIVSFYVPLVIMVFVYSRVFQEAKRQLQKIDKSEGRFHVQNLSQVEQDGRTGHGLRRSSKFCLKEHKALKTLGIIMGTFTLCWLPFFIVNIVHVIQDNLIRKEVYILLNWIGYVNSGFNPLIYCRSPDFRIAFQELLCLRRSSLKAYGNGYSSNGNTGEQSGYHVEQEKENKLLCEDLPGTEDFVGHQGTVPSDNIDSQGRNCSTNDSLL
Test: Compound was tested for agonist activity against cloned human beta-2 adrenergic receptor at a concentration of 1000 nM
pEC50: −log10 of the molar value.

{"smiles.data": "COc1ccc(CC[C@H](C)NC[C@@H](O)COc2ccc(O)cc2)cc1", "measured.target": "Beta-2 adrenergic receptor (Homo sapiens, UniProt P07550)", "pEC50": "> 10.00"}
